- method-summary: Inhibition of serum-stimulated proliferation of mouse ERBB2 transfected NIH3T3 cell line after 24 hrs
assay-metric: log10 of IC50 (log10 of the value in nM)
The figures below represent log10 of IC50, where IC50 is stated in nM.

Request: Requested field: log10 of IC50. Item: Cc1cccc(Nc2ncnc3ccc(NC(=O)NCCCl)cc23)c1
Result: 3.32

Request: Requested field: log10 of IC50. Item: O=NN(CCCl)C(=O)Nc1ccc2ncnc(Nc3cccc(Cl)c3)c2c1
Result: 3.73

Request: Requested field: log10 of IC50. Item: O=C(NCCCl)Nc1ccc2ncnc(Nc3cccc(Cl)c3)c2c1
Result: 3.13

Request: Requested field: log10 of IC50. Item: CN(C(=O)N(CCCl)N=O)c1ccc2ncnc(Nc3cccc(Br)c3)c2c1
Result: 3.49

Request: Requested field: log10 of IC50. Item: CNc1ccc2ncnc(Nc3cccc(Cl)c3)c2c1
Result: 2.95

Request: Requested field: log10 of IC50. Item: Cc1cccc(Nc2ncnc3ccc(NC(=O)N(CCCl)N=O)cc23)c1
Result: 4.09
